Reference for the values: patent US20250206836A1

# MEASURED ON: human CD36 (on HEK 293 or SCC25 cells) (human, UniProt P16671 2-472)
# Sequence (P16671 2-472 limits assumed): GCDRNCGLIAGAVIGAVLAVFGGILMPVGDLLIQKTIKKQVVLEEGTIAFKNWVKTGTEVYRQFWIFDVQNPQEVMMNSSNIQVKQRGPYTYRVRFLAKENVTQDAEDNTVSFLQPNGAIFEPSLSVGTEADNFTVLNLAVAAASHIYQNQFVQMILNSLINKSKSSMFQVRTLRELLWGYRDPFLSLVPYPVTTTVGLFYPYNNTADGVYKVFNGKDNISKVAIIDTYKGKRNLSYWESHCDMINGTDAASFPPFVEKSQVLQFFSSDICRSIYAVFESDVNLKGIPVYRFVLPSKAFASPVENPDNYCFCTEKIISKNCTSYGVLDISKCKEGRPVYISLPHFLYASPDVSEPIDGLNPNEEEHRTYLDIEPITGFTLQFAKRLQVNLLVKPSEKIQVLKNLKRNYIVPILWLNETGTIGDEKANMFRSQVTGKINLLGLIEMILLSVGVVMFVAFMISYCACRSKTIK
# TEST SUMMARY: cell-based or functional assay
Reported values of IC50 of fatty acid uptake inhibition (BODIPY FL C16, HEK hCD36 cells) for individual entries
Entry rule: numbers only, all in pM.

Example binders with recorded IC50 of fatty acid uptake inhibition (BODIPY FL C16, HEK hCD36 cells):
>  <BINDER>
18G04 (antibody, human IgG1, V domains shown, Chimeric: mouse variable regions on human IgG1 LALA (L234A/L235A); also called 018G04) VH: EVQLQQSGPELVKPGASVKISCETSGHTFTEYTMHWVKQSHGKSLEWIGGIYPNNGATKYNQKFKGKATLTVDKSSSTAYMELRSLTSEDSAVYYCARDRYDVWFAYWGQGTLVTVSA VL: ETTVTQSPASLSMAIGEKVTIRCITSTDIDDDMNWYQQKPGEPPKLLISEGNTLRPGVPSRFSSSGYGTDFVFTIENLLSEDVADYYCLQSDNLPLTFGGGTKLEIK

>  <REPORTED VALUE>
2600

$$$$
>  <BINDER>
6G04 (antibody, human IgG1, V domains shown, Chimeric: mouse variable regions on human IgG1 LALA (L234A/L235A); also called 06G04; 006G04) VH: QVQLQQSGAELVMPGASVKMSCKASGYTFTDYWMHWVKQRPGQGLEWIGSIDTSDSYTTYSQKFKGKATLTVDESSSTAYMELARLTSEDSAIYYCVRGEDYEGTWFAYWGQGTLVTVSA VL: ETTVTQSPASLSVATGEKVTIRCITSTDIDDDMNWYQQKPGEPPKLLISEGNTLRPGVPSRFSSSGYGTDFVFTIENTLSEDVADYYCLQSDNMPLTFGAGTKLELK

>  <REPORTED VALUE>
100

$$$$
>  <BINDER>
30G04 (antibody, human IgG1, V domains shown, Chimeric: mouse variable regions on human IgG1 LALA (L234A/L235A); also called 030G04) VH: EVQLVESGGGVVQPGESLKLSCESNEYEFPSHDMSWVRKTPERRLELVAAINSDGAITYYPDTMERRFIISRDNTKKTLYLQMSSLKSEDTAMYYCARHGQTGTWFAYWGQGTLVTVSA VL: ETTVTQSPASLSMAIGEKVTIRCITSTDIDDDMNWYQQKPGEPPKLLISEGNTLRPGVPSRFSSSGYGTDFVFTIENMLSEDVADYYCLQSDNLPLTFGAGTKLELK

>  <REPORTED VALUE>
800

$$$$
>  <BINDER>
19G04 (antibody, human IgG1, V domains shown, Chimeric: mouse variable regions on human IgG1 LALA (L234A/L235A); also called 019G04) VH: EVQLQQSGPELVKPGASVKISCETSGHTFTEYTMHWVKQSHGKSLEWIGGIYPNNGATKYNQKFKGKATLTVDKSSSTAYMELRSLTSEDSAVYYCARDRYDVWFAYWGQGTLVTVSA VL: ETTVTQSPASLSMAIGEKVTIRCITSTDIDDDMNWYQQKPGEPPKLLISEGNTLRPGVPSRFSSSGYGTDFIFTIENMLSEDVADYYCLQSDNLPLTFGAGTKLELK

>  <REPORTED VALUE>
50

$$$$
>  <BINDER>
16G04 (antibody, human IgG1, V domains shown, Chimeric: mouse variable regions on human IgG1 LALA (L234A/L235A); also called 016G04) VH: EVQLQQSGPELVKPGASVKISCKTSGYTFTEYTMHWVKQSHGKSLEWIGGINPYNGGTAYNQKFKNKATLTVDISSNTAFMEFRSLTSEDSAVYYCASDYFYGDANPWFAYWGQGTLVTVSA VL: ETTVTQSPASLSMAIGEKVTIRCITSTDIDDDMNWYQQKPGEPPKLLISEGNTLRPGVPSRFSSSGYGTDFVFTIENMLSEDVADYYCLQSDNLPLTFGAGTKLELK

>  <REPORTED VALUE>
150

$$$$

IC50 of fatty acid uptake inhibition (BODIPY FL C16, HEK hCD36 cells) measured on 36G04 (antibody, human IgG1, V domains shown, Chimeric: chicken variable regions on human IgG1 LALA (L234A/L235A); also called 036G04) VH: AVTLDESGGGLQTPGGALSLVCKASGFIFSSYGMGWVRQAPGKGLEYIAAISNDGSKADYGAAVKGRATISRDNGQSTVRLQLNNLRAEDTATYYCAKSADTGYCSWSACIADSIDAWGHGTEVIVSS VL: ALTQPSSVSAIPGETVKITCSGGGSDYGWYQQKSPGSAPVTVIYWSDNRPSNIPSRFSGSESGSTATLTITGVRAEDEAVYFCGGYDSSGSGMFGAGTTLTVL = 810

IC50 of fatty acid uptake inhibition (BODIPY FL C16, HEK hCD36 cells) measured on 33G04 (antibody, human IgG1, V domains shown, Chimeric: chicken variable regions on human IgG1 LALA (L234A/L235A); also called 033G04) VH: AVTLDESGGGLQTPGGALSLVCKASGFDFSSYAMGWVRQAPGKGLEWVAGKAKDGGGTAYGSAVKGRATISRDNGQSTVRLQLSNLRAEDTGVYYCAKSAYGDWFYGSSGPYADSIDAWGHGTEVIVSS VL: ALTQPSSVSASPGETVKITCSGSSDSWYGWYQQKSPGSALVTVIYDSTNRPSSIPSRFSGSTSGSTGTLTITGVRADDEAVYFCGSFDSSTDSTAFGAGTTLTVL = 100

IC50 of fatty acid uptake inhibition (BODIPY FL C16, HEK hCD36 cells) measured on 7G04 (antibody, human IgG1, V domains shown, Chimeric: mouse variable regions on human IgG1 LALA (L234A/L235A); also called 07G04; 007G04) VH: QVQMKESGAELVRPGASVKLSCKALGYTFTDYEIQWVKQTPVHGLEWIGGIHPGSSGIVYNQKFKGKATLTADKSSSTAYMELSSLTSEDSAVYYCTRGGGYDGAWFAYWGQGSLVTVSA VL: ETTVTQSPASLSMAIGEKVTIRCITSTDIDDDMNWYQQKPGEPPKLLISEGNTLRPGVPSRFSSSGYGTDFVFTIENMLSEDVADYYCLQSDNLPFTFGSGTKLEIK = 1000

IC50 of fatty acid uptake inhibition (BODIPY FL C16, HEK hCD36 cells) measured on 23G04 (antibody, human IgG1, V domains shown, Chimeric: mouse variable regions on human IgG1 LALA (L234A/L235A); also called 023G04) VH: QVQLQQPGTELVKPGASVKLSCKASGYTFTSYWMHWVKQRPGQGLEWIGEIDPSDSHTNYNQKFKGKATLTVDKSSSTAYMQLSSLTSEDSAVYYCAPIYYGLDNWGQGTTLTVSS VL: DIVLTQSQKFMSTSVGDRVSVTCKASQNVGTNVAWYQQKPGQSPKALIYSASYRYSGVPDRFTGSGSGTDFTLTISNVQSEDLAEYFCQQYNSYPYTFGGGTKLEIK = 1000

IC50 of fatty acid uptake inhibition (BODIPY FL C16, HEK hCD36 cells) measured on 35G04 (antibody, human IgG1, V domains shown, Chimeric: chicken variable regions on human IgG1 LALA (L234A/L235A); also called 035G04) VH: AVTLDESGGGLQTPGGALSLVCKASGFTFSNYGMGWMRQAPGKGLEFVAKIYKDGGYTGYGAAVDGRATISRDDGQSTVRLQLNDLRAEDTATYFCAKAADSGYLYITDSIDAWGHGTEVIVSS VL: ALTQPSSVSANPGETVKITCSGGSGSYGWFQQKSPGNAPVTVIYHNDQRPSDIPSRFSGSKSGSTATLTITEVQADDEAVYVCGGYDNDNDAGIFGAGTTLTVL = 40
